Kindly supply the reported growth inhibition values for the records listed here.
Assay: NCI Yeast Anticancer Drug Screen. Data for the sgs1 mgt1 strain (AID 161);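 note: 0% = growth of cultures given vehicle only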
Conditions: S. cerevisiae sgs1 mgt1 strain, at 50.0 µM, stronger effect = higher value
This is part of a sample that, as a whole, favours compounds with a hit. Of some 79,000 tested, about 15% had one in any assay.
Report only the number, with the unit % understood.

stdin: Return growth inhibition for the following molecule: CCOP(=O)(OCC)Oc1ccc(S(C)=O)cc1 (stereo not given)
stdout: -1

stdin: Output growth inhibition of COc1ccc(C(O)(C(=O)OCCSC)c2ccc(OC)cc2)cc1
stdout: -2.6

stdin: Hello, please tell me recorded growth inhibition for this one: CC(C)=CCC/C(C)=N\N=C(N)N
stdout: -13.2

stdin: Input N#CCc1ccc(CC#N)cc1 , output reported growth inhibition.
stdout: -2.8

stdin: Supply measured growth inhibition of CC(C)CNC12CN3CN(CN(C3)C1)C2 in your reply.
stdout: -6

stdin: Indicate its recorded growth inhibition; the molecule in question is COc1ccc(CCl)cc1CCl
stdout: -7.25

stdin: Give the reported value of growth inhibition for this record: CC(Cl)CN(CC(C)Cl)c1ccc2c(c1)Cc1cc([N+](=O)[O-])ccc1-2 (stereo not given)
stdout: 33.7

stdin: For the molecule Cc1cc([N+](=O)[O-])c(N)c([N+](=O)[O-])c1 , report growth inhibition.
stdout: -9.8

stdin: Consider the molecule O=P1(Oc2ccccc2)N(CCCl)CCN1c1ccccc1 (stereo not given) and give its recorded growth inhibition.
stdout: 7.15

stdin: Name the recorded growth inhibition of the molecule listed here: COc1ccc2c(c1OC(C)=O)-c1cc(OC(C)=O)cc3c1C(C2)NCC3 (stereo not given)
stdout: -5.7

stdin: Identify growth inhibition associated with the molecule c1ccc(NNc2ccccc2)cc1
stdout: 0.95

stdin: Quickly give me recorded growth inhibition for COc1ccc([N+](=O)[O-])cc1
stdout: 12.6

stdin: Using known records, supply growth inhibition for CC1(C)N=C(N/N=C/c2ccccc2)SP1(=O)NNc1ncccn1 (stereo not given)
stdout: -20.1

stdin: Provide only the value of recorded growth inhibition for NC(=O)CCC(N)C(=O)O.[Cl-].[Cl-].[Cl-].[Cl-].[Pt+2] (stereo not given)
stdout: -9.1

stdin: Give the reported value of growth inhibition for this record: CNC(=O)O/N=C(\CN=[N+]=[N-])C(C)(C)C
stdout: -1.4

stdin: For CC1CN1C1c2ccccc2CC1O (stereo not given) , write its growth inhibition.
stdout: -11.8

stdin: Report growth inhibition for CN(C)C(=S)Oc1c(S(=O)(=O)F)ccc(Cl)c1Cl
stdout: 98

stdin: In one line, give reported growth inhibition of the entry OCCN1CCN(c2cccc(Cl)c2)CC1 .
stdout: -34.6

stdin: Report growth inhibition for COc1cc(C2c3cc4c(cc3OC3(OC)COC(=O)C23)OCO4)cc(OC)c1OC(C)=O (stereo not given)
stdout: -2.05

stdin: Supply reported growth inhibition belonging to this molecule: COc1ccc2[nH]cc(/C=C\[N+](=O)[O-])c2c1
stdout: 32.4

stdin: Note down growth inhibition recorded for COc1cc(C=C2C(=O)NC(=O)NC2=O)ccc1O
stdout: 5.05

stdin: Return growth inhibition (reported value) for this molecule: Nc1cc([N+](=O)[O-])cc([N+](=O)[O-])c1
stdout: 30.1

stdin: Return growth inhibition (reported value) for this molecule: CCCCOP(O)(=S)OCCCC.[Tb]
stdout: -14.6

stdin: Return reported growth inhibition. Input molecule: c1ccc2c3c(ccc2c1)NC1CCCN1C3 (stereo not given)
stdout: -0.85

stdin: Recall and state the measured growth inhibition for Clc1cccc(Cl)c1C(Cl)Cl .
stdout: -3.15

stdin: Quickly give me recorded growth inhibition for CC(C)CCC1C(=O)NC(=O)NC1=O
stdout: -15.4

stdin: Consider the molecule O=P(NCCCl)(NCCCl)Oc1ccccc1 and give its recorded growth inhibition.
stdout: -18.8

stdin: Item O=C1NC(=O)C(C(=O)C(=O)Nc2cccc(C(F)(F)F)c2)C(=O)N1 : provide growth inhibition
stdout: -44.7

stdin: State its growth inhibition: CN(C)[C@@H]1C(=O)C(C(N)=O)=C(O)[C@]2(O)C(=O)C3C(=O)c4c(O)ccc(Cl)c4[C@](C)(O)[C@H]3C[C@@H]12 (stereo not given in full)
stdout: 22.8

stdin: Respond only with growth inhibition recorded for CN1C(c2cccnc2)=NCC12CCCC2
stdout: 6.45

stdin: Please give the documented growth inhibition of CCN(CC)C(=S)[S][Pb]([CH2]C)([CH2]C)[CH2]C
stdout: 30.2

stdin: Note down growth inhibition recorded for COc1ccc(C(=O)/C=C/c2ccccc2)cc1
stdout: 30.1

stdin: Give recorded growth inhibition. Cn1cnc([N+](=O)[O-])c1[Se]c1nc(N)nc2nc[nH]c12
stdout: -26.8

stdin: Check the records and state growth inhibition for CC(C)CCC1C(=O)N(C)C(=O)N(C)C1=O
stdout: 3.15

stdin: Tell me measured growth inhibition for [Cl][Hg][c]1cccs1 please.
stdout: 99.5

stdin: Identify measured growth inhibition associated with Cc1cccc(OP(=O)(c2ccccc2)c2ccccc2)c1
stdout: 22.6

stdin: Respond only with growth inhibition recorded for COc1ccc2c(c1)c(CC(C)[N+](=O)[O-])c(C)n2Cc1ccccc1 (stereo not given)
stdout: 5.65

stdin: Return growth inhibition (reported value) for this molecule: COc1ccc(S(=O)(=O)F)cc1NC(=O)CCc1ccc(N2C(N)=NC(N)=NC2(C)C)cc1Cl
stdout: 86.8

stdin: Provide only the value of recorded growth inhibition for Clc1cccc2ccccc12
stdout: 0.1

stdin: Give reported growth inhibition value for CC(C)=CCC1=C(OOC2=C(CC=C(C)C)C(=O)c3ccccc3C2=O)C(=O)c2ccccc2C1=O
stdout: 43

stdin: Answer with the recorded growth inhibition for the molecule listed here: COc1c(O)cc2c(c1OC)-c1ccc(SC)c(=O)cc1C(NC(C)=O)CC2 (stereo not given)
stdout: 4.95

stdin: Please indicate growth inhibition recorded for Cc1cc(C)c(C(=O)O)c(C)c1.[Hg]
stdout: 99.7

stdin: Report growth inhibition, nothing else, for this molecule: COC(=S)NP(=O)(NC(=S)OC)NC(=S)OC
stdout: 9.65

stdin: Give the reported growth inhibition for this molecule. CC(C)OP(=O)(OCCCO)C(Cl)Cl (stereo not given)
stdout: 1.1

stdin: Check the records and state growth inhibition for COC(=O)C1=COC(C)[C@H]2CN3CCc4c([nH]c5cc(OC)ccc45)C3CC12 (stereo not given in full)
stdout: -7.65

stdin: Fill in growth inhibition for record CC(Nc1c([N+](=O)[O-])ccc(C(=O)NCCN(C)C)c1[N+](=O)[O-])C(=O)Nc1ccc(N(CCCl)CCCl)cc1 (stereo not given)
stdout: 0.75

stdin: Read the entry O=[N+]([O-])c1ccc(O)c(C=NCCN=Cc2cc([N+](=O)[O-])ccc2O)c1.[Ni+2] and write its reported growth inhibition.
stdout: -3.9

stdin: Give growth inhibition for [N-]=[N+]=CC(=O)CCC(=O)C=[N+]=[N-]
stdout: -27.1

stdin: State its growth inhibition for this molecule: CCOP(=O)(NC(C)(C)C)OCC
stdout: -21.4

stdin: Fill in reported growth inhibition for this entry: Clc1cc2nncc(N3CC3)c2cc1Cl
stdout: -3.75
